Target: GABA-A receptor; anion channel (Rattus norvegicus) (UniProt O09028+P15431+P18506+P18508+P19969+P20236+P23574+P23576+P28471+P28473+P30191+P62813+P63079+P63138+Q91ZM7+Q9ES14)
Experiment: Shift in [35S]TBPS binding to GABA-A Benzodiazepine receptor of rat brain membrane
MEASUREMENT_KIND: Shift
Hey, just send me the number, nothing else.

Consider the compound C[C@@H]1CN(C(=O)N2Cc3c(C(=O)OC(C)(C)C)ncn3-c3ccc(C(F)(F)F)cc32)C[C@H](C)N1 and give its recorded Shift.
0.31

Consider the compound Cc1cccc2c1N(C(=O)N1C[C@@H](C)N(C)[C@@H](C)C1)Cc1c(C(=O)OC(C)(C)C)ncn1-2 and give its recorded Shift.
0.48

Consider the compound C[C@@H]1CN(C(=O)N2Cc3c(C(=O)OC(C)(C)C)ncn3-c3cccc(Cl)c32)C[C@H](C)N1C and give its recorded Shift.
0.22

Consider the compound CC(=O)N1[C@H](C)CN(C(=O)N2Cc3c(C(=O)OC(C)(C)C)ncn3-c3ccc(Cl)cc32)C[C@@H]1C and give its recorded Shift.
0.94

====

For each entry below, report its Change in Cl- current value.
Biological target: GABA-A receptor; alpha-1/beta-2/gamma-2 (Homo sapiens) (UniProt P14867+P47870+P18507)
Assay: In vitro GABA-mediated chloride current in A293 cells expressing GABA-A benzodiazepine receptor alpha-1-beta-2-gamma-2 subunits at 5 uM
Assay type: functional, cell-based
Details: HEK293
Hey, just send me the number, nothing else.

State the measured Change in Cl- current (GABA-A receptor; alpha-1/beta-2/gamma-2 (Homo sapiens) (UniProt P14867+P47870+P18507)) of CC(=O)N1[C@H](C)CN(C(=O)N2Cc3c(C(=O)OC(C)(C)C)ncn3-c3ccc(Cl)cc32)C[C@@H]1C
0.79

State the measured Change in Cl- current (GABA-A receptor; alpha-1/beta-2/gamma-2 (Homo sapiens) (UniProt P14867+P47870+P18507)) of CC1CN(C(=O)N2Cc3c(C(=O)OC(C)(C)C)ncn3-c3ccc(Cl)cc32)CC(C)N1 (centres undefined)
0.8

State the measured Change in Cl- current (GABA-A receptor; alpha-1/beta-2/gamma-2 (Homo sapiens) (UniProt P14867+P47870+P18507)) of C[C@H]1CN(C(=O)N2Cc3c(C(=O)OC(C)(C)C)ncn3-c3ccc(Cl)cc32)CCN1
0.1

State the measured Change in Cl- current (GABA-A receptor; alpha-1/beta-2/gamma-2 (Homo sapiens) (UniProt P14867+P47870+P18507)) of C[C@H]1CN(C(=O)N2Cc3c(C(=O)OC(C)(C)C)ncn3-c3ccc(Cl)cc32)C[C@H](C)N1
0.4

====

For each entry below, report its Change in Cl- current value.
Biological target: GABA-A receptor; alpha-1/beta-2/gamma-2 (Homo sapiens) (UniProt P14867+P47870+P18507)
Assay: In vitro GABA-mediated chloride current in A293 cells expressing GABA-A benzodiazepine receptor alpha-1-beta-2-gamma-2 subunits at 5 uM
Assay type: functional, cell-based
Conditions: HEK293

Consider the compound CC(C)n1c(=O)c2c(-c3noc(C4CC4)n3)ncn2c2ccccc21 and give its recorded Change in Cl- current.
0.04

Consider the compound C[C@H]1CN(C(=O)N2Cc3c(C(=O)OC(C)(C)C)ncn3-c3ccc(C(F)(F)F)cc32)C[C@H](C)N1 and give its recorded Change in Cl- current.
1

Consider the compound C[C@@H]1CN(C(=O)N2Cc3c(C(=O)OC(C)(C)C)ncn3-c3ccc(Cl)cc32)C[C@H](C)N1C and give its recorded Change in Cl- current.
-0.2

Consider the compound CC1CN(C)CC(C)N1C(=O)N1Cc2c(C(=O)OC(C)(C)C)ncn2-c2ccc(Cl)cc21 (stereo not drawn) and give its recorded Change in Cl- current.
1.71

Consider the compound CC(C)(C)OC(=O)c1ncn2c1CN(C(=O)N1CCCC1)c1cc(Cl)ccc1-2.CCCC(=O)O and give its recorded Change in Cl- current.
0.38

Consider the compound CC(C)(C)OC(=O)c1ncn2c1CN(C(=O)N1CCCCC1)c1ccccc1-2 and give its recorded Change in Cl- current.
0

Consider the compound C[C@H]1CN(C(=O)N2Cc3c(C(=O)OC(C)(C)C)ncn3-c3ccc(C(F)(F)F)cc32)CCN1 and give its recorded Change in Cl- current.
0.7

Consider the compound CN(C)C(=O)N1Cc2c(C(=O)OC(C)(C)C)ncn2-c2ccc(Cl)cc21 and give its recorded Change in Cl- current.
0.35

Consider the compound CC1(C)CN(C(=O)N2Cc3c(C(=O)OC(C)(C)C)ncn3-c3ccc(Cl)cc32)CC(C)(C)N1 and give its recorded Change in Cl- current.
1.14

Consider the compound CC1CN(C)CC(C)N1C(=O)N1Cc2c(C(=O)OC(C)(C)C)ncn2-c2ccc(F)cc21 (stereo not drawn) and give its recorded Change in Cl- current.
0.75

Consider the compound Cc1ccc2c(c1)N(C(=O)N1C[C@@H](C)N[C@@H](C)C1)Cc1c(C(=O)OC(C)(C)C)ncn1-2 and give its recorded Change in Cl- current.
0.3

Consider the compound CC(C)(C)OC(=O)c1ncn2c1CN(C(=O)N1CCN(C3CC3)CC1)c1cc(Cl)ccc1-2 and give its recorded Change in Cl- current.
0.75

Consider the compound CCCC(=O)O.C[C@@H]1CN(C(=O)N2Cc3c(C(=O)OC(C)(C)C)ncn3-c3ccc(Cl)cc32)C[C@H](C)N1 and give its recorded Change in Cl- current.
0.3

Consider the compound Cc1cccc2c1N(C(=O)N1C[C@@H](C)N(C)[C@@H](C)C1)Cc1c(C(=O)OC(C)(C)C)ncn1-2 and give its recorded Change in Cl- current.
0.33

Consider the compound C[C@@H]1CN(C(=O)N2Cc3c(C(=O)OC(C)(C)C)ncn3-c3ccc(C(F)(F)F)cc32)C[C@H](C)N1 and give its recorded Change in Cl- current.
0.5

Consider the compound C[C@@H]1CN(C(=O)N2Cc3c(C(=O)OC(C)(C)C)ncn3-c3ccc(Cl)cc32)C[C@H](C)N1CC(F)(F)F and give its recorded Change in Cl- current.
0

Consider the compound CCCC(=O)O.CCN1[C@H](C)CN(C(=O)N2Cc3c(C(=O)OC(C)(C)C)ncn3-c3ccc(Cl)cc32)C[C@@H]1C and give its recorded Change in Cl- current.
0.5

Consider the compound CN1CCN(C(=O)N2Cc3c(C(=O)OC(C)(C)C)ncn3-c3ccc(Cl)cc32)CC1 and give its recorded Change in Cl- current.
0.98

Consider the compound C[C@@H]1CN(C(=O)N2Cc3c(C(=O)OC(C)(C)C)ncn3-c3ccc(C(F)(F)F)cc32)CCN1 and give its recorded Change in Cl- current.
1

Consider the compound CC(C)N1[C@H](C)CN(C(=O)N2Cc3c(C(=O)OC(C)(C)C)ncn3-c3ccc(Cl)cc32)C[C@@H]1C and give its recorded Change in Cl- current.
-0.32

Consider the compound C[C@@H]1CN(C(=O)N2Cc3c(C(=O)OC(C)(C)C)ncn3-c3cccc(Cl)c32)C[C@H](C)N1 and give its recorded Change in Cl- current.
0.29

Consider the compound CN1C2CCC1CN(C(=O)N1Cc3c(C(=O)OC(C)(C)C)ncn3-c3ccc(Cl)cc31)C2 and give its recorded Change in Cl- current.
2

Consider the compound C[C@@H]1NCCN(C(=O)N2Cc3c(C(=O)OC(C)(C)C)ncn3-c3ccc(Cl)cc32)[C@H]1C and give its recorded Change in Cl- current.
0.48

Consider the compound Cc1ccc2c(c1)N(C(=O)N1CCN[C@H](C)C1)Cc1c(C(=O)OC(C)(C)C)ncn1-2 and give its recorded Change in Cl- current.
0.1

Consider the compound Cc1ccc2c(c1)N(C(=O)N1C[C@H](C)N[C@@H](C)C1)Cc1c(C(=O)OC(C)(C)C)ncn1-2 and give its recorded Change in Cl- current.
1.3

Consider the compound C[C@@H]1CN(C(=O)N2Cc3c(C(=O)OC(C)(C)C)ncn3-c3ccccc32)C[C@H](C)N1 and give its recorded Change in Cl- current.
0

Consider the compound CC1CN(C(=O)N2Cc3c(C(=O)OC(C)(C)C)ncn3-c3ccc(Cl)cc32)C(C)CN1.O=C(O)CC(=O)O (stereo not drawn) and give its recorded Change in Cl- current.
-0.05

Consider the compound Cc1cccc2c1N(C(=O)N1C[C@@H](C)N[C@@H](C)C1)Cc1c(C(=O)OC(C)(C)C)ncn1-2 and give its recorded Change in Cl- current.
0.22

Consider the compound CC(C)(C)OC(=O)c1ncn2c1CN(C(=O)N1CC3CCC(C1)N3)c1cc(Cl)ccc1-2 and give its recorded Change in Cl- current.
0.2

Consider the compound CC(C)(C)OC(=O)c1ncn2c1CN(C(=O)N1CCN(c3ccccn3)CC1)c1cc(Cl)ccc1-2 and give its recorded Change in Cl- current.
0.83

Consider the compound C[C@@H]1CN(C(=O)N2Cc3c(C(=O)OC(C)(C)C)ncn3-c3ccc(C(F)(F)F)cc32)C[C@@H](C)N1 and give its recorded Change in Cl- current.
0.8

Consider the compound CC1(C)CN(C(=O)N2Cc3c(C(=O)OC(C)(C)C)ncn3-c3ccc(Cl)cc32)CCN1 and give its recorded Change in Cl- current.
0

Consider the compound CN1CC2CC1CN2C(=O)N1Cc2c(C(=O)OC(C)(C)C)ncn2-c2ccc(Cl)cc21 (stereo not drawn) and give its recorded Change in Cl- current.
1
